B1: library; a variant is named by its letters at N, in order (parent)
chain: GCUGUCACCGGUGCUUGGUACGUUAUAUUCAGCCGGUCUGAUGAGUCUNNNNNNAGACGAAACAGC

- Variants of: B1
- Experimental Protocol: normalized RNA/DNA level without ligand (relative to sTRSVctl = 100) (log10 (% of sTRSVctl)); HEK293T overexpressing SLC46A1; higher = less ribozyme self-cleavage, higher mRNA level
- Study Conditions: without (6R,S)-folinic acid; ligand present: no
# label = y if normalized RNA/DNA level without ligand (log10) >= 2 else n

> print(dat)
   variant.spec  class.name
1        UAGGAU           n
2        UACGGA           n
3        GGCACA           y
4        CCCUCU           y
5        GCGCCG           y
6        CCCGCA           y

Values compiled from the supplement of paper PMC6757056.
